System: SARS-CoV-2
Assay: microbe, parasite or virus in culture
Details: Severe acute respiratory syndrome coronavirus 2, Calu-3
measuredEndpoint: EC50 (nM)
Express it in nM; write the number only.

Under SARS-CoV-2: EC50 value of CCC(CC)COC(=O)[C@H](C)N[P@](=O)(OC[C@H]1O[C@@](C#N)(c2ccc3c(N)ncnn23)[C@H](O)[C@@H]1O)Oc1ccccc1 ?
79.6

Field entry: Cc1nnc(SC(=O)c2cc3ccccc3n2C)s1
659

Record: Cc1nnc(SC(=O)c2cccc3cc[nH]c23)s1
437

Now consider COc1nnc(SC(=O)c2cc3ccccc3[nH]2)s1 .
38.3

Entry to check: O=C(Sc1nncs1)c1cc2ccccc2[nH]1
562

* * *

Target: Replicase polyprotein 1ab (Severe acute respiratory syndrome coronavirus 2)
Experiment: Inhibition of SARS CoV-2 main protease
measuredEndpoint: pIC50
pIC50 here: minus log base 10 of the concentration, concentration in moles per litre.

Give its pIC50 value. Item: S=C(SSC(=S)N1CCOCC1)N1CCOCC1
5.39

* * *

Target: UniProt:P0DTD1
Assay: Time dependent inhibition of recombinant his tagged SARS CoV-2 main protease expressed in Escherichia coli BL21 assessed as ratio of Kinact/Ki using MCA-AVLQSGFR-K(DNP)-K-NH2 as substrate pre-incubated for 5 mins followed by substrate addition measured after 60 mins by FRET based assay
measuredEndpoint: log10 of Ratio (log10 of the value in M⁻¹ s⁻¹)
Heads up, the numbers here are log10 of Ratio in M⁻¹ s⁻¹ units.

Any idea what log10 of Ratio came out for Cc1nnc(SC(=O)c2ccc3cc[nH]c3c2)s1 on UniProt:P0DTD1?
3.77

Also, Cc1nnc(SC(=O)c2ccc(C#Cc3ccccc3)o2)s1 please.
3.72

Again, but for O=C(Sc1nc2ccccc2s1)c1ccc2ccccc2n1
3.74

Next: O=C(Sc1nc2ccccc2s1)c1ccc(-c2ccccc2)o1
2.71

Do the same for COc1ccc2cc([C@H](C)C(=O)Sc3ncccn3)ccc2c1 please
4.53

Another compound: O=C(Sc1nc2ccccc2s1)c1ccc(-c2ccccc2)s1
3.32

Then what about the compound O=C(Sc1nc2ccccc2s1)c1cc2ccccc2s1 ?
3.30

For O=C(Sc1nc2ccccc2s1)c1ccc(-c2ccc(Br)cc2)o1 then?
3.17

Also CSc1nnc(SC(=O)c2cc3ccccc3[nH]2)s1 ?
4.07

// query: Cc1nnc(SC(=O)c2ccc(-c3ccccc3)[nH]2)s1
3.71

# repeat for Cc1cc(C)nc(SC(=O)c2cc3ccccc3[nH]2)n1
3.25

Also need Cc1nnc(SC(=O)c2cc3ccccc3[nH]2)o1 , thanks.
3.59

Follow-up item: Cc1nnc(SC(=O)c2cc3ccccc3o2)s1
3.72

// same read-out, input: Cc1nnc(SC(=O)c2ccc3[nH]ccc3c2)s1
3.53

Proceed to Cc1nnc(SC(=O)c2cc3ccccc3[nH]2)n1C(=O)c1cc2ccccc2[nH]1
4.09

* * *

System: Vero 76
Test: Cytotoxicity against African green monkey Vero 76 cells assessed as reduction in cell […] at 10 uM incubated for 24 hrs by cell titer glo luminescent assay
Format: toxicity, cell-based
Details: chlorocebus sabaeus, vero 76, 24 h
measuredEndpoint: Activity

Cc1nnc(SC(=O)c2ccc(-c3ccccc3)o2)s1 :: Non-Toxic
COc1nnc(SC(=O)c2cc3ccccc3[nH]2)s1 :: Non-Toxic
O=C(Sc1ncccn1)c1cc2ccccc2[nH]1 :: Non-Toxic
O=C(Oc1cncc(Cl)c1)c1cccc2[nH]ccc12 :: Non-Toxic
O=C(Sc1ncccn1)c1ccc2ccccc2n1 :: Non-Toxic

Report Activity for O=C(Sc1ncccn1)c1ccc(-c2ccc(Br)cc2)s1 please.
Non-Toxic

Moving on to Cc1nnc(SC(=O)c2cc3ccccc3n2C)s1
Non-Toxic

Entry O=C(Sc1nncs1)c1cc2ccccc2[nH]1 please
Non-Toxic

Next up: Cc1nnc(SC(=O)c2ccc3ccccc3c2)s1
Non-Toxic

How about this compound: Cc1nnc(SC(=O)c2ccc(C#Cc3ccccc3)o2)s1
Non-Toxic

What do you get for CCC(CC)COC(=O)[C@H](C)N[P@](=O)(OC[C@H]1O[C@@](C#N)(c2ccc3c(N)ncnn23)[C@H](O)[C@@H]1O)Oc1ccccc1 ?
Non-Toxic

Same lookup for Cc1nnc(SC(=O)c2ccc3cc[nH]c3c2)s1 , please.
Non-Toxic

How about this compound: Cc1ccnc(SC(=O)c2cc3ccccc3[nH]2)n1
Non-Toxic
